Cited source for all entries: PubChem BioAssay AID488969

biological target: Metabotropic glutamate receptor 8 (Rattus norvegicus); assay: mGluR8 Gi/Go-coupled signaling modulation – cell-based, rat, thallium flux, HTS, primary screen (AID 488969); conditions: HEK293 rat mGluR8, GIRK thallium flux, FluoZin2; at 10 µM; stronger effect = higher value; submaximal glutamate (EC20) added with thallium
Over roughly 110,000 compounds, “z-score” has its median near -0.1; the highest 2% begin near 2. This excerpt belongs to a sample that is enriched for the highest values.

compound	z-score
CN(C)CCN1C(=O)c2oc3ccc(F)cc3c(=O)c2C1c1ccncc1 (stereo not given)	-0.265
CN1C(=O)c2oc3ccccc3c(=O)c2C1c1ccccn1 (stereo not given)	8.59
O=C1c2oc3ccccc3c(=O)c2C(c2cccc(O)c2)N1c1ccccn1 (stereo not given)	-0.576
CCN(CC)CCN1C(=O)c2oc3ccccc3c(=O)c2C1c1ccccc1 (stereo not given)	3.81
CCN(CC)CCN1C(=O)c2oc3ccccc3c(=O)c2C1c1ccc(C)cc1 (stereo not given)	8.12

---

target: Metabotropic glutamate receptor 8 (Rattus norvegicus); experiment: mGluR8 Gi/Go-coupled signaling modulation – cell-based, rat, thallium flux, HTS, primary screen (AID 488969); conditions: HEK293 rat mGluR8, GIRK thallium flux, FluoZin2; at 10 µM; stronger effect = higher value; submaximal glutamate (EC20) added with thallium
Over roughly 110,000 compounds, “z-score” has its median near -0.1; the highest 2% begin near 2. For the sample, the highest values were picked, then their nearest neighbours and some compounds at random.

compound	z-score
CCOC(=O)N1CCN(C(=O)NC23CC4CC(CC(C4)C2)C3)CC1	-0.174
CCOc1ccc(C(=O)C(c2ccccc2)N2CCOCC2)cc1 (centres undefined)	-0.418
Cc1ccccc1CCN(C(=O)Cn1nnc2ccccc21)C(C(=O)NC(C)(C)C)c1ccsc1 (centres undefined)	0.0716
O=C(O)/C(=C\c1ccc(Br)cc1)c1ccc(S(=O)(=O)N2CCCCC2)s1	-0.862

---

target: Metabotropic glutamate receptor 8 (Rattus norvegicus) (UniProt P70579); assay: mGluR8 Gi/Go-coupled signaling modulation – cell-based, rat, thallium flux, HTS, primary screen (AID 488969); settings: HEK293 rat mGluR8, GIRK (G protein-gated inwardly rectifying potassium channel) thallium flux, FluoZin2; at 10 µM; stronger effect = higher value; submaximal glutamate (EC20) added with thallium
Sequence (P70579 whole entry, looked up): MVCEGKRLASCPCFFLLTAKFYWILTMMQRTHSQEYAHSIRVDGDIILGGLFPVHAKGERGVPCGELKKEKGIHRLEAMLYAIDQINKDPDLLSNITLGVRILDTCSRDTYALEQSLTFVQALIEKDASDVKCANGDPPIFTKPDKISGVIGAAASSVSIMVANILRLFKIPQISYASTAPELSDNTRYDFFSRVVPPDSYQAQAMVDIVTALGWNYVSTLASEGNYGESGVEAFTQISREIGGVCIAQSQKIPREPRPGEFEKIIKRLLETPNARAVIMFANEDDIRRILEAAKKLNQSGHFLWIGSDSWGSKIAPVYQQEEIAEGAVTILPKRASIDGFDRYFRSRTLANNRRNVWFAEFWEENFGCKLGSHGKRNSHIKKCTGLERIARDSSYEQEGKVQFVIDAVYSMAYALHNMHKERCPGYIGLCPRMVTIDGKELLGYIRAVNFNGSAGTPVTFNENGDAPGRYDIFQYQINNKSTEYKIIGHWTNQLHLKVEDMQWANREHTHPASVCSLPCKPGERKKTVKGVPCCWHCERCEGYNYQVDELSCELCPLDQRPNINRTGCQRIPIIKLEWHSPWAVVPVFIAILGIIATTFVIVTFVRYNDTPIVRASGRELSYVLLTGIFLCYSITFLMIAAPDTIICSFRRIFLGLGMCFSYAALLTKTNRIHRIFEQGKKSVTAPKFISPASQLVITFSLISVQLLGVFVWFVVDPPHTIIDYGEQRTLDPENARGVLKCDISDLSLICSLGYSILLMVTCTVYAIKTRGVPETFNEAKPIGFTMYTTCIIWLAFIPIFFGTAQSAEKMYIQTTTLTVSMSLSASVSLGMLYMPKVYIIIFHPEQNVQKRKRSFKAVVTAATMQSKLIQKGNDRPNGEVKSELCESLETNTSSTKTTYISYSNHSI
The full ranking holds about 110,000 compounds; the median of “z-score” is about -0.1, and the highest 2% start at about 2. The sample holds the highest values, similar compounds and a random draw of the others, so the mix is not that of the screen.
Okay, here is how we bin by z-score: band A = under -0.06, band B = from -0.06 up to 0.7, band C = 0.7 and over

molecule	answer-label
CN(CC(=O)Nc1ccccc1Br)Cc1nc2ccccc2c(=O)[nH]1	band C
Cc1nnc(SCC(=O)NN2C(=O)NC3(CCCCC3)C2=O)s1	band A
O=C(CCNS(=O)(=O)c1ccc2c(c1)CCC(=O)N2)NCc1cccnc1	band A
COc1ccc(C(=O)NC(=S)N(Cc2ccccc2)Cc2ccccc2)cc1	band C
Cc1cccc(Cn2c(C(C)O)nc3ccccc32)c1 (stereo not drawn)	band A
CCOC(=O)C1=C(N)c2ccccc2CC1C(C)C (stereo not drawn)	band A
CCOC(=O)c1ccc(NC(=O)c2ccccc2)cc1	band A
O=C(NC1CCCCC1)N(C1=NCCCCC1)c1ccc(Br)cc1	band A
CCOc1ccc(C(=O)NCCc2ccccc2)cc1	band B
N#Cc1cn(-c2ccccc2)nc1-c1cc2ccccc2oc1=O	band B
CCCN(Cc1ccc(N(CC)CC)cc1)CC1CC1	band C
O=C(NCCOCCOCCNC(=O)c1cccnc1)c1cccnc1	band B
CCOc1ccc(C(=O)NC(=S)N(Cc2ccccc2)Cc2ccccc2)cc1	band C
Cc1cccc(C(C)(C)C)c1OCCCCN1CCCC1	band C
COC(=O)Nc1ccc(OCc2ccccc2)cc1	band B
O=C(NCCCCNC(=O)c1cccnc1)c1cccnc1	band C
CCCCCc1ccc(S(=O)(=O)NCCc2ccncc2)cc1	band B
COC(=O)c1ccc(CSc2nnc(Nc3ccccc3OC)s2)o1	band C
Cc1ccccc1NC(=S)NCc1cccn1C	band A
CCCCc1ccc(S(=O)(=O)NCCc2ccncc2)cc1	band B
CCOC(=O)C1=C(NC(=S)NC(=O)c2ccccc2)c2ccccc2CC1(C)C	band C
CC1Cc2ccccc2N1CC(=O)c1c(N)n(Cc2ccccc2)c(=O)n(C)c1=O (stereo not drawn)	band A
O=C(CSc1nnc(Nc2ccccc2)s1)NN1C(=O)NC2(CCCCC2)C1=O	band C
Cc1occc1C(=O)N/N=C/c1cccs1	band B
CCOC(=O)c1ccc(NC(=O)c2ccc(NC(=O)c3ccccc3)cc2)cc1	band A
O=C1C(=O)N(CNc2cccnc2)c2ccccc21	band A
Cc1cc(C(=O)NCc2cc(C)n(C)n2)sc1-c1ccccc1	band A
COc1cccc(/C=c2\s/c(=C/C(=O)c3ccc(C)cc3)[nH]c2=O)c1OC	band C
CC(C)(C)C1CCc2c(C(=O)NNC(=O)/C=C/C(=O)O)csc2C1 (stereo not drawn)	band A
CCCN(Cc1ccc(N(C)C)cc1)CC1CC1	band A
Cc1ccccc1/C=c1\s/c(=C\C(=O)C(C)(C)C)[nH]c1=O	band C
OCCN(Cc1ccccc1)CC1CCCCC1	band B
C=CCNCCCOc1ccc(C)cc1Br	band B
CCCNC(=O)c1cccc(COCC(F)(F)C(F)F)c1	band B
Cc1cc(S(=O)(=O)NCC(=O)O)ccc1F	band B
COCc1cc(C)nc2sc(C(=O)N3CCCCC3)c(N)c12	band B
CC(C)(C)c1ccccc1OCCCCN1CCCC1	band C
Cc1ccccc1OCC(=O)O/N=C(\N)Cc1cccs1	band C
O=C(O)c1ccc2c(c1)ncn2C1CCCCCC1	band B
Cc1cccc(/C=c2\s/c(=C\C(=O)C(C)(C)C)[nH]c2=O)c1	band C
c1ccc(-c2csc3ncn4nnnc4c23)cc1	band A
